# inhibition at 10 µM values compiled below
Target: AVP-V₁ sites (Rattus norvegicus)
Construct: crude membrane preparation of male rat liver (AVP-V₁ sites); from tissue; host or cells: male rat liver, crude membrane preparation
Sequence (P30560 whole entry): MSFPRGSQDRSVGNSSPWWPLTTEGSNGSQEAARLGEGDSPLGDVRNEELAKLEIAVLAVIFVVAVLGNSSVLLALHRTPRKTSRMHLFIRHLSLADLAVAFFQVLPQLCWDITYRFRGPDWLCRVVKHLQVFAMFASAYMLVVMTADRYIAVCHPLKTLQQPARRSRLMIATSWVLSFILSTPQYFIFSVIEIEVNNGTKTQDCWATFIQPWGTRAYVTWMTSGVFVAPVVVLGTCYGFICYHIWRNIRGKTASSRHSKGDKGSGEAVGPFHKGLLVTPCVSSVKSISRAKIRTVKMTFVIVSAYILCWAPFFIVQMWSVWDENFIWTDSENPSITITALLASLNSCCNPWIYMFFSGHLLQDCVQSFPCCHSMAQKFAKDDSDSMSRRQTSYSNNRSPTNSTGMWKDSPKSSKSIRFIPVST
Experiment: [³H]AVP radioligand binding assay, crude membrane preparation of male rat liver
Settings: @ 10 µM test compound, 1 nM [³H]AVP, read-out: Inhibition Vasopressin V1 % inhibition
Just the number in %, nothing appended.

// known answers, use as guide
> print(dat)
                                    compound         readout.name  experimental.result
 1  COc1ccc(S(=O)(=O)N2CCC3(C=Cc4ccccc43)CC2)cc1 [Example 4]  inhibition at 10 µM                    0
 2  COC(=O)CC1(O)CC2CCC1(CS(=O)(=O)N1CCC3(C=Cc4ccccc43)CC1)C2(C)C (stereo not drawn) [Example 19]  inhibition at 10 µM                   54
 3  CC12CCC(C(CC(=O)N3CCC4(C=Cc5ccccc54)CC3)C1=O)C2(C)C (stereo not drawn) [Example 22]  inhibition at 10 µM                    3
 4  CC1(C)C2CCC1(CS(=O)(=O)N1CCC3(C=Cc4ccccc43)CC1)C(=NO)C2 (stereo not drawn) [Example 27]  inhibition at 10 µM                   52
 5  CC(C)C[C@H](NC(=O)OC(C)(C)C)[C@H](O)CC(=O)N1CCC2(C=Cc3ccccc32)CC1 [Example 29]  inhibition at 10 µM                   78
 6  CC1(C)C2CCC1(CS(=O)(=O)NCCC1CCc3ccccc31)C(=O)C2 (stereo not drawn) [Example 14]  inhibition at 10 µM                   37
 7  O=S(=O)(c1ccc(Cl)cc1)N1CCC2(C=Cc3ccccc32)CC1 [Example 24]  inhibition at 10 µM                   30
 8  CC1(C)C2CC[C@@]1(CS(=O)(=O)N1CCC3(C=Cc4ccccc43)CC1)C(O)C2 (single isomer, unassigned) [Example 9A]  inhibition at 10 µM                   48
 9  CC(C)C[C@H](NC(=O)OC(C)(C)C)[C@@H](O)CC(=O)N1CCC2(C=Cc3ccccc32)CC1 [Example 25]  inhibition at 10 µM                   33
10  CC1(O)CC2CCC1(CS(=O)(=O)N1CCC3(C=Cc4ccccc43)CC1)C2(C)C (stereo not drawn) [Example 13]  inhibition at 10 µM                   45

Query: Suppose we examine the compound CC(C)(C)OC(=O)N[C@@H](Cc1ccccc1)[C@@H](O)CC(=O)N1CCC2(C=Cc3ccccc32)CC1 [Example 28] ; what inhibition at 10 µM value has been reported?
Response: 18

Query: Endpoint output: inhibition at 10 µM of O=S(=O)(c1ccc(Br)cc1)N1CCC2(C=Cc3ccccc32)CC1 [Example 3] . Value?
Response: 27

---

Molecular target: AVP-V₂ sites (Rattus norvegicus)
Construct: male rat liver (AVP-V₁ sites) or kidney medulla (AVP-V₂ sites); from tissue; host or cells: male rat kidney medulla, crude membrane preparation
Test: [³H]AVP radioligand binding assay, crude membrane preparation of rat kidney medulla
Settings: @ 10 µM test compound, 2 nM [³H]AVP, read-out: Inhibition Vasopressin V2 % inhibition
Readout Name: inhibition at 10 µM (%)
API: value field is a number in %; no unit string.

> print(dat)
                                   compound         readout.name  experimental.result
1  CC1(C)C2CCC1(CS(=O)(=O)NCCC1CCc3ccccc31)C(=O)C2 (stereo not shown) [Example 14]  inhibition at 10 µM                   12
2  CCC1(O)CC2CC[C@]1(CS(=O)(=O)N1CCC3(C=Cc4ccccc43)CC1)C2(C)C (stereo partly shown) [Example 15]  inhibition at 10 µM                   17
3  CC12CCC(C(CC(=O)N3CCC4(C=Cc5ccccc54)CC3)C1=O)C2(C)C (stereo not shown) [Example 22]  inhibition at 10 µM                    3

Note: attention shifts to another entry.
Query: What measured inhibition at 10 µM is associated with CC1(C)C2CCC1(CS(=O)(=O)N1CCC3(C=Cc4ccccc43)CC1)C(=NO)C2 (stereo not shown) [Example 27] on AVP-V₂ sites (Rattus norvegicus)?
Response: 21

---

Molecular target: AVP-V₂ sites (Rattus norvegicus, UniProt Q00788)
Construct: male rat liver (AVP-V₁ sites) or kidney medulla (AVP-V₂ sites); from tissue; host or cells: male rat kidney medulla, crude membrane preparation
Sequence (Q00788 whole entry): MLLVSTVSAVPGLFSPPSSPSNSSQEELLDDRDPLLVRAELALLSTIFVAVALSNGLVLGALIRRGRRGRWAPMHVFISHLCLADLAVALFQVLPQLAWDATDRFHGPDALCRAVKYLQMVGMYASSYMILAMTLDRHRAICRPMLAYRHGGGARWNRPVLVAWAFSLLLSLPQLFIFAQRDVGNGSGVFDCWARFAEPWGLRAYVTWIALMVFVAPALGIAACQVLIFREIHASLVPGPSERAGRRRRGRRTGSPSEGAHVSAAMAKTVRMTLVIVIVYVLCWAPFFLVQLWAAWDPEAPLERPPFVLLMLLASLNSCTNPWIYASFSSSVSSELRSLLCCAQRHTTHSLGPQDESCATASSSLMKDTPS
Assay: [³H]AVP radioligand binding assay, crude membrane preparation of rat kidney medulla
Conditions: @ 10 µM test compound, 2 nM [³H]AVP, read-out: Inhibition Vasopressin V2 % inhibition
Readout Name: inhibition at 10 µM (%)
Kindly answer with a numeric value in %, unit omitted.

Answered cases to consult:
> print(dat)
                                   molecule         readout.name  experimental.result
1  CC1(C)[C@@H]2CC[C@@]1(CS(=O)(=O)N1CCC3(C=Cc4ccccc43)CC1)C(O)(c1ccccc1)C2 (some centres unmarked)  inhibition at 10 µM                   23
2  COC(=O)CC1(O)CC2CCC1(CS(=O)(=O)N1CCC3(C=Cc4ccccc43)CC1)C2(C)C (centres unmarked)  inhibition at 10 µM                   20
3  CC(C)C[C@H](NC(=O)OC(C)(C)C)[C@H](O)CC(=O)N1CCC2(C=Cc3ccccc32)CC1  inhibition at 10 µM                   13
4  COc1ccc(S(=O)(=O)N2CCC3(C=Cc4ccccc43)CC2)cc1  inhibition at 10 µM                   11
5  O=S(=O)(c1ccc(F)cc1)N1CCC2(C=Cc3ccccc32)CC1  inhibition at 10 µM                    6

Query: # get_value(readout= inhibition at 10 µM, system= AVP-V₂ sites (Rattus norvegicus, UniProt Q00788)) for `CC(C)C[C@H](NC(=O)OC(C)(C)C)[C@@H](O)CC(=O)N1CCC2(C=Cc3ccccc32)CC1`
Response: 7

Query: Return inhibition at 10 µM measured with AVP-V₂ sites (Rattus norvegicus, UniProt Q00788) given this molecule: `O=S(=O)(c1ccc(Cl)cc1)N1CCC2(C=Cc3ccccc32)CC1`
Response: 19

Query: What value of inhibition at 10 µM on AVP-V₂ sites (Rattus norvegicus, UniProt Q00788) does `O=S(=O)(c1ccc(Br)cc1)N1CCC2(C=Cc3ccccc32)CC1` have?
Response: 14

---

Target: UniProtKB P70536
Sequence (P70536 1-388): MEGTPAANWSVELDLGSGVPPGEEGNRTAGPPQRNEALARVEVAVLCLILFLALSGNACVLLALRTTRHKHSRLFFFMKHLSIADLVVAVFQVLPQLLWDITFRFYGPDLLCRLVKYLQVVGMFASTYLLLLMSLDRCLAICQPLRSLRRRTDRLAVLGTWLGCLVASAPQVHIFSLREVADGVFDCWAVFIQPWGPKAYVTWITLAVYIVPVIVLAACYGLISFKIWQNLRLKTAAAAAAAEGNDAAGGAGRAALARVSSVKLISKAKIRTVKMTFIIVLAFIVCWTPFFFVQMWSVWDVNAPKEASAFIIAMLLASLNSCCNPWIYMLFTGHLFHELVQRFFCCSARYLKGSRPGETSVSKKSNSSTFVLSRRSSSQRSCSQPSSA
Readout Name: pIC50
// pIC50: -log10(molar conc.)

Answered cases to consult:
> print(dat)
                                   molecule  experimental.result
1  CC1(O)CC2CCC1(CS(=O)(=O)N1CCC3(C=Cc4ccccc43)CC1)C2(C)C (stereo not shown)                 6.34
2  CC1(C)C2CCC1(CS(=O)(=O)N1CCC3(C=Cc4ccccc43)CC1)C(=O)C2 (stereo not shown) [Example 6]                 5.82
3  CC1(C)C2CCC1(CS(=O)(=O)N1CCC3(C=Cc4ccccc43)CC1)C(=O)C2 (stereo not shown) [Example 7]                 5.62
4  O=S(=O)(c1ccc(Br)cc1)N1CCC2(C=Cc3ccccc32)CC1                 5.92
5  CC1(C)C2CCC1(CS(=O)(=O)NCCC1CCc3ccccc31)C(=O)C2 (stereo not shown)                 5.56

# ---- query molecule ----
Query: Please state recorded pIC50 (tested on UniProtKB P70536) of `COc1ccc(S(=O)(=O)N2CCC3(C=Cc4ccccc43)CC2)cc1`
Response: 5.22
